Reference source: patent US20250171437A1

# TESTED_SYSTEM: human PAH with the R408W mutation (A375 R408W cells) (Homo sapiens, UniProt P00439, R408W)
# Construct: expressed in transfected cells
# Sequence (P00439 whole entry R408W): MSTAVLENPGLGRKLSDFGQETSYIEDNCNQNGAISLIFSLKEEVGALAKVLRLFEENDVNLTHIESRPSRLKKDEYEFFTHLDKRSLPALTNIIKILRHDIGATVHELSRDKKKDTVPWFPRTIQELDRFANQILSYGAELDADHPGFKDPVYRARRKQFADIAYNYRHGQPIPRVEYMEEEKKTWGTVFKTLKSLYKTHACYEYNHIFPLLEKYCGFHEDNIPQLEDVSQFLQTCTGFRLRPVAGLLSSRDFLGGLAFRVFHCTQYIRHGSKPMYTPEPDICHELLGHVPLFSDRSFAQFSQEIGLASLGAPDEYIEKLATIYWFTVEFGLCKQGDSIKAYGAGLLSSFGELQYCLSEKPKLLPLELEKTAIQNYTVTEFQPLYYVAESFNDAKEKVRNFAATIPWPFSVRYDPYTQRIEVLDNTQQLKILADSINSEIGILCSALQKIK
# METHOD_SUMMARY: Cell Based Phenylalanine Flux Assay
# CONDITION_NOTES: A375 cells expressing R408W PAH; 24 hrs with compound, then 20 μM sepiapterin and 800 μM 13C9,15N-Phenylalanine for 4 hours; 13C-Tyrosine by LC-MS; average where tested multiple times
READOUT_TYPE: AC50

CNC(C)(C)c1nc(C)c(C(=O)N2CCc3[nH]cnc3C2c2nc3cc(F)ccc3o2)o1 (stereo not shown) : 1 to 5 µM
CC(C)(O)c1ncc(C(=O)N2CCc3[nH]cnc3C2c2nc3cc(F)ccc3o2)s1 (stereo not shown) : 1 to 5 µM
COCc1ncc(C(=O)N2CCc3[nH]cnc3C2c2nc3cc(F)ccc3o2)s1 (stereo not shown) : 1 to 5 µM
O=C(c1cn(-c2ccccn2)nc1Cl)N1CCc2[nH]cnc2C1c1nc2cc(F)ccc2o1 (stereo not shown) : 1 to 5 µM
O=C(c1cnn2cc(N3CCC(O)CC3)ccc12)N1CCc2[nH]cnc2C1c1nc2ccc(F)c(F)c2o1 (stereo not shown) : 1 to 5 µM
Cc1nc(C(=O)N2CCc3[nH]cnc3C2c2nc3c(F)cccc3o2)n(C)n1 (stereo not shown) : 1 to 5 µM
O=C(c1cnco1)N1CCc2[nH]cnc2C1c1nc2ccc(Br)cc2o1 (stereo not shown) : ≥ 5 µM
O=C(CCc1cnco1)N1CCc2[nH]cnc2C1c1nc2c(F)cccc2o1 (stereo not shown) : 1 to 5 µM
O=C(c1cnn2cc(OCCn3cccn3)ccc12)N1CCc2[nH]cnc2[C@H]1c1nc2cc(F)ccc2o1 (single isomer, unassigned) : 1 to 5 µM
O=C(c1nc(C(F)(F)F)co1)N1CCc2nc[nH]c2C1c1nc2cc(F)ccc2o1 (stereo not shown) : 1 to 5 µM
O=C(c1ccn(-c2ccccn2)n1)N1CCc2[nH]cnc2C1c1nc2ccccc2o1 (stereo not shown) : ≥ 5 µM
O=C(c1ccn(CC(F)F)n1)N1CCc2[nH]cnc2C1c1nc2cccc(F)c2o1 (stereo not shown) : 1 to 5 µM
Cc1ccc2nc(C3c4nc[nH]c4CCN3C(=O)Cc3nncs3)oc2c1 (stereo not shown) : 1 to 5 µM
Cn1nccc1C(=O)N1CCc2[nH]cnc2C1c1nc2cc(F)ccc2o1 (stereo not shown) : 1 to 5 µM
O=C(C1CN(CC(F)(F)F)C1)N1CCc2[nH]cnc2C1c1nc2cc(F)ccc2o1 (stereo not shown) : 1 to 5 µM
Cn1nc(C(F)(F)F)nc1C(=O)N1CCc2[nH]cnc2C1c1nc2ccc(F)cc2o1 (stereo not shown) : ≥ 5 µM
O=C(c1nnc(C2CC(F)(F)C2)o1)N1CCc2[nH]cnc2C1c1nc2cc(F)ccc2o1 (stereo not shown) : 1 to 5 µM
O=C(c1cnn2cc(N3CCC(O)CC3)ccc12)N1CCc2[nH]cnc2C1c1nc2c(F)c(F)ccc2o1 (stereo not shown) : ≥ 5 µM
O=C(c1nnc(-c2ncccc2F)o1)N1CCc2[nH]cnc2C1c1nc2cc(C(F)(F)F)ccc2o1 (stereo not shown) : 1 to 5 µM
